# TARGET_OR_SYSTEM: Fuc(a1-2)Gal(b1-3)GlcNAc(b1-3)[Gal(b1-4)GlcNAc(b1-6)]Gal(b1-4)Glc
# METHOD_SUMMARY: glycan array binding signal (z-score within array); higher = stronger binding
# TEST_SETTINGS: glycan notation: IUPAC condensed, linker removed
This excerpt belongs to a sample that is enriched for the strongest signals.
REPORTED_PROPERTY: glycan array binding signal (z-score)

Note glycan array binding signal (z-score) for the binder shown: AT5G01260(PC)(40) (Arabidopsis thaliana), Q9LFB0 (protein) MIGIGRTLTSSSPSKIILEDLPPGIYRYGTEIFTSVPRKTFHHIKFLRLDSAQSSRILKPVPLRSSSIKDSQVNVEDEEIEASNKTVRVRFQLRKECVFGEHFFIVGDDPVFGGLWDPETALPLNWSDGNVWTVDLDLPVGRLVEFKLLLKAQTGEILWQPGPNRALETWETNKTIRICEDWDNADLQMMIEEDFVPYTNISSIGSEDEDEVLGSVQQNSSVVAVENAGYVSDESAQNSSFSIQSEKTMEPSNGALTAREVIKEAMFTEEESPVLVPGLIPLSDLDNEQVEVINEGKAETFPEVDKKQEPKAERNKKAKVKAISLFEKSEQEAVKSVEQRQYNAVEEEQQRLETEPLGTPDVLFENDIQWGRRTLYKLLSNFRLF
-0.343
